Numbers sourced from ChEMBL document CHEMBL3507680.

Listed next: entries and their corresponding cytotoxicity at 70.5 h.
# procedure_text: Human HepG2 cell viability assay in 384 well format
# Format: toxicity, cell-based
# Design: dose 125 nL, time 70.5 hour; concentration not given beside the values
# condition: HepG2 cells, read-out: Inhibition
Write it as a number; the unit % goes unstated.

Example entries and their recorded answers appear below.
Reported cytotoxicity at 70.5 h for CCN1CCC(CNC(=O)C(c2ccc(F)cc2)N(C)C)(N(C)C)CC1 (stereo unspecified) was -6.97

Reported cytotoxicity at 70.5 h for `Cn1cc(CN2CCCN(C(=O)c3ccccn3)CC2)cn1` was -1.29

Reported cytotoxicity at 70.5 h for `Cc1nc(N2CCCC2)nc2c1CN(C(=O)N1CCOCC1)CC2` was -14.3

Reported cytotoxicity at 70.5 h for COc1ccc(CNC(=O)CCN2CCOC(C(F)(F)F)C2)cc1 (stereo unspecified) was -7.56

Reported cytotoxicity at 70.5 h for Cn1cc(CN2CCC(c3cc(CCO)[nH]n3)C2)cn1 (stereo unspecified) was -8.16

Please look at the following molecule next.
Reported cytotoxicity at 70.5 h for Cc1cc(NC(=O)CN2CCCC2c2noc(C(C)C)n2)n(C)n1 (stereo unspecified) was -7.61

###

Listed next: entries and their corresponding cytotoxicity at 70.5 h.
# procedure_text: Human HepG2 cell viability assay in 384 well format
# Format: toxicity, cell-based
# Design: dose 125 nL, time 70.5 hour; concentration not given beside the values
# condition: HepG2 cells, read-out: Inhibition
Write it as a number; the unit % goes unstated.

Reported cytotoxicity at 70.5 h for Fc1cccc(CN2CCOCC3(CCN(C4CCOCC4)C3)C2)c1 (stereo unspecified) was -7.34

###

# procedure_text: Human HepG2 cell viability assay in 384 well format
# Type: toxicity, cell-based
# Parameters: dose 125 nL, time 70.5 hour; concentration not given beside the values
# condition: HepG2 cells, read-out: Inhibition
readout_label: cytotoxicity at 70.5 h
Reply with the number, then its unit.

Reported cytotoxicity at 70.5 h for `O=c1ccc(-c2cccs2)nn1CN1CCN(c2ccccn2)CC1` was -23.6%

Others:
Reported cytotoxicity at 70.5 h for Cc1cc(NC2CCc3nc(C)nn3C2)n2ncnc2n1 (stereo unspecified) was -98.6%

Reported cytotoxicity at 70.5 h for Cc1ccc(N2CCCN(CC3CC3)C(C(C)C)C2)nn1 (stereo unspecified) was -14.3%

###

Listed next: entries and their corresponding cytotoxicity at 70.5 h.
# procedure_text: Human HepG2 cell viability assay in 384 well format
# Type: toxicity, cell-based
# Set-up: dose 125 nL, time 70.5 hour; concentration not given beside the values
# condition: HepG2 cells, read-out: Inhibition
Write it as a number; the unit % goes unstated.

Example entries and their recorded answers appear below.
Reported cytotoxicity at 70.5 h for `COC(=O)c1ccc(C(=O)N2CCC(c3nnc(C)s3)CC2)cc1` was -10.2

Reported cytotoxicity at 70.5 h for `O=C1CCC2(CCN(Cc3nccs3)CC2)N1Cc1ccccc1` was -7.75

Reported cytotoxicity at 70.5 h for CCCc1noc(C(C)N2CCN(c3ccc(C#N)cn3)CC2)n1 (centres undefined) was -10.8

Reported cytotoxicity at 70.5 h for O=C(c1ccc(-n2cnnc2)cc1Cl)N1CCCC2(CCNC2)C1 (centres undefined) was 2.05

Reported cytotoxicity at 70.5 h for `CCc1c(C)sc(NC(=O)CN2CCOCC2)c1C(=O)OC` was -6.67

Reported cytotoxicity at 70.5 h for `Cn1cnc(S(=O)(=O)N2C[C@@H]3CC[C@H](C2)N(Cc2ccccn2)C3)c1` was -7.24

Reported cytotoxicity at 70.5 h for CS(=O)(=O)NC1CCCN(C(=O)NCc2cccnc2)C1 (centres undefined) was -0.126

Reported cytotoxicity at 70.5 h for `Cc1csc(N2CCN(C(=O)C3(C#N)CCCC3)CC2)n1` was -5.35

Others:
Reported cytotoxicity at 70.5 h for O=C(NCC1CC1)C1CN(C(=O)c2ccnnc2)CC12CCOCC2 (centres undefined) was -2.63

Reported cytotoxicity at 70.5 h for COc1ccc(CC(=O)N2CCCC(n3cc(C)cn3)C2)cc1F (centres undefined) was -2.2

Reported cytotoxicity at 70.5 h for `CN1CC(C)(C)CN(C(=O)CCc2ccccc2)CC1=O` was -1.8

Reported cytotoxicity at 70.5 h for `CCN(CC)S(=O)(=O)c1cc(Br)ccc1OC` was -7.07

Reported cytotoxicity at 70.5 h for O=C(O)c1cccnc1CN1CCCCC1CCc1cccs1 (centres undefined) was 12.3

Reported cytotoxicity at 70.5 h for `CCc1nc2c(c(NCc3nc(-c4cccnc4)no3)n1)CCNCC2` was -2.89

Reported cytotoxicity at 70.5 h for `Cn1nc2c(cc1=O)CN(Cc1coc(-c3ccccc3)n1)CC2` was 0.822

Reported cytotoxicity at 70.5 h for COCCN(Cc1cccs1)C(=O)C1CCCN(C(N)=O)C1 (centres undefined) was 14.1

Reported cytotoxicity at 70.5 h for `CN(C)c1ncnc2c1CCN(CC1CCOCC1)CC2` was -15

Reported cytotoxicity at 70.5 h for CC1CN(C)c2ccccc2N(C(=O)c2ccc(=O)n(C)c2)C1 (centres undefined) was 6.89

Reported cytotoxicity at 70.5 h for `O=C(Nc1ccccc1)[C@H]1O[C@H](CCN2CCCCC2)CC[C@@H]1O` was -3.54

Reported cytotoxicity at 70.5 h for Cc1nc(C2CCCN2C(=O)COCCOc2ccccc2)no1 (centres undefined) was 8.74

Reported cytotoxicity at 70.5 h for `CC(=O)N1CCCN(CCCSCc2ccccc2)CC1` was -6.67

Reported cytotoxicity at 70.5 h for Cc1nn(C)cc1CN1CCCCCC1c1ccc(Cl)cc1 (centres undefined) was 6.75

Reported cytotoxicity at 70.5 h for CC1CC(=O)c2cc(C(=O)N3CCOCC3)c(=O)[nH]c2C1 (centres undefined) was -0.268

Reported cytotoxicity at 70.5 h for `Cc1noc([C@]23COC[C@H]2CN(S(=O)(=O)N(C)C)C3)n1` was -1.88

###

# procedure_text: Human HepG2 cell viability assay in 384 well format
# Type: toxicity, cell-based
# Design: dose 125 nL, time 70.5 hour; concentration not given beside the values
# condition: HepG2 cells, read-out: Inhibition
Listed next: entries and their corresponding cytotoxicity at 70.5 h.
Write it as a number; the unit % goes unstated.

Example entries and their recorded answers appear below.
Reported cytotoxicity at 70.5 h for `Cc1cn2c(CN(C)C(=O)c3cccnc3O)c(C)nc2s1` was -4.29

Reported cytotoxicity at 70.5 h for `COc1ccc(F)cc1Cn1nc(C(N)=O)ccc1=O` was 6.09

Others:
Reported cytotoxicity at 70.5 h for `O=C(c1ccoc1)N1CCn2cnc(COCC3CC3)c2C1` was 4.58

Reported cytotoxicity at 70.5 h for `CC(C)CN1C[C@@H]2CN(c3cnccn3)C[C@@H]2C1=O` was 29.2

Reported cytotoxicity at 70.5 h for CCc1nc(C2CCCN(C(=O)C3=NN(CC)C(=O)CC3)C2)no1 (stereo unspecified) was -13.2

Reported cytotoxicity at 70.5 h for CN1CCCC2(CCN(C(=O)Cn3ncc4ccccc4c3=O)C2)C1=O (stereo unspecified) was 9.09

###

# procedure_text: Human HepG2 cell viability assay in 384 well format
# Assay type: toxicity, cell-based
# Set-up: dose 125 nL, time 70.5 hour; concentration not given beside the values
# condition: HepG2 cells, read-out: Inhibition
readout_label: cytotoxicity at 70.5 h (%)
Write it as a number; the unit % goes unstated.

Example entries and their recorded answers appear below.
Reported cytotoxicity at 70.5 h for COc1ccc(-c2cc(C(=O)N3N=C(C)CC3(O)C(F)(F)F)[nH]n2)cc1 (stereo not drawn) was 12.4

Reported cytotoxicity at 70.5 h for CC1CN(CC(=O)NC(=O)NCc2ccccc2)CCO1 (stereo not drawn) was 7.19

Reported cytotoxicity at 70.5 h for `Cc1ccc(N(C)C2CCN(C(=O)c3n[nH]c4c3CCC4)CC2)nn1` was -3.25

Reported cytotoxicity at 70.5 h for `CC(C)[C@H]1CN(c2cnccn2)C[C@@H]1NC(=O)C1(C#N)CCOCC1` was -6.21

Reported cytotoxicity at 70.5 h for `COc1ccc(S(=O)(=O)NCc2cccnc2N(C)C)cc1F` was 40.3

Reported cytotoxicity at 70.5 h for `CC(C)Cc1nnc(NCc2ccsc2)o1` was -5.09

Reported cytotoxicity at 70.5 h for COC1CCCN(CCCc2cn[nH]c2)C1 (stereo not drawn) was 0.195

Reported cytotoxicity at 70.5 h for `O=C(c1ccc(=O)[nH]c1)N1CCC(Oc2cccc(C(F)(F)F)c2)CC1` was 3.69

Reported cytotoxicity at 70.5 h for CC(C)c1ccc(CC2(C)Cc3cc(CC(=O)O)ccc3O2)cc1 (stereo not drawn) was 17.5

Reported cytotoxicity at 70.5 h for CCOCCOC(C)C(=O)Nc1nccn1Cc1ccccc1 (stereo not drawn) was -15

Please look at the following compound next.
Reported cytotoxicity at 70.5 h for Cc1cc(C2CCCN2CCC(=O)N2CCc3sccc3C2)no1 (stereo not drawn) was 1.59
